Molecular target: human CD40/CD154 (Homo sapiens, UniProt P29965)
Construct: CD154 (soluble human, FLAG-tagged, recombinant from Alexis Biochemicals; MW=18 kDa); purchased Alexis Biochemicals
Sequence (P29965 113-261 limits assumed): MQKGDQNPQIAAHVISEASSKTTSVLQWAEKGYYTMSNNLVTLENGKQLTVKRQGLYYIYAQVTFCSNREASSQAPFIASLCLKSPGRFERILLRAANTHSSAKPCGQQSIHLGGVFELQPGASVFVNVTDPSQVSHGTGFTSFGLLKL
Assay: Human CD40/CD154 binding inhibition assay (cell-free, plate-based)
Conditions: cell-free binding
Use rule met when the recorded Human CD40/CD154 IC50 is no lower than 2 µg/mL; use rule not met when it is lower.

molecule	cat
O=S(=O)([O-])c1cccc(N=Nc2ccc(N=Nc3ccc(Nc4ccccc4)c4c(S(=O)(=O)[O-])cccc34)c3ccccc23)c1.[Na+].[Na+]	rule not met
Nc1ccc(N=Nc2ccc(-c3ccc(N=Nc4c(S(=O)(=O)[O-])cc5cc(S(=O)(=O)[O-])c(N=Nc6ccccc6)c(O)c5c4N)cc3)cc2)c(N)c1.[Na+].[Na+]	rule not met
Nc1c(N=Nc2cccc([N+](=O)[O-])c2)c(S(=O)(=O)[O-])cc2cc(S(=O)(=O)[O-])c(N=Nc3ccccc3)c(O)c12.[Na+].[Na+]	rule met
Nc1cc(N)c(N=Nc2cccc3c(S(=O)(=O)O)cccc23)cc1N=Nc1cc([N+](=O)[O-])ccc1O.[Na]	rule not met
Cc1ccc(S(=O)(=O)Oc2ccc(N=Nc3ccc(-c4ccc(N=Nc5c(O)ccc6cc(S(=O)(=O)[O-])cc(S(=O)(=O)[O-])c56)c(C)c4)cc3C)cc2)cc1.[Na+].[Na+]	rule met
COc1ccccc1NC(=O)C(N=Nc1ccc(-c2nc3ccc(C)c(S(=O)(=O)[O-])c3s2)cc1S(=O)(=O)[O-])C(C)=O.[Na+].[Na+] (stereo not drawn)	rule not met
CCOc1ccc(N=Nc2ccc(-c3ccc(N=Nc4c(O)ccc5cc(S(=O)(=O)[O-])cc(S(=O)(=O)[O-])c45)cc3)cc2)cc1.[Na+].[Na+]	rule met
Nc1ccc2cc(S(=O)(=O)[O-])cc(O)c2c1N=Nc1ccc(NC(=O)Nc2ccc(N=Nc3c(N)ccc4cc(S(=O)(=O)[O-])cc(O)c34)c(S(=O)(=O)[O-])c2)cc1S(=O)(=O)[O-].[Na+].[Na+].[Na+].[Na+]	rule met
